Hi there, I'd appreciate the recorded Ki for every entry that follows.
Molecular target: Serine/threonine-protein kinase pim-1 (Homo sapiens, UniProt P11309)
Sequence (P11309 whole entry): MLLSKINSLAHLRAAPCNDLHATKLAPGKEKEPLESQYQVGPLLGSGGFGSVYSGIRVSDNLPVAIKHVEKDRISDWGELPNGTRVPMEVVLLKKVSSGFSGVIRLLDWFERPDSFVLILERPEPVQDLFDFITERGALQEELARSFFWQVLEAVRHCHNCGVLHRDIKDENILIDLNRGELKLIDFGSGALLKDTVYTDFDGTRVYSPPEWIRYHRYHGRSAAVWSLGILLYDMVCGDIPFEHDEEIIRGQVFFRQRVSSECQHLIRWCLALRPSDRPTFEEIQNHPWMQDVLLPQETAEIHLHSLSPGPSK
Type: functional
Activity calls are given as the source filed them.

Known Ki results, listed for orientation:
> print(dat)
                                chem.smiles             result
1  COc1cc2c(cc1Nc1nc(Nc3cccc(F)c3C(N)=O)c3cc[nH]c3n1)N(C(=O)CN(C)C)CC2   3980 nM (active)
2                 O=c1[nH][nH]c2ccc(Br)cc12  15800 nM (active)
3  Cc1ccccc1-c1c(-c2ccc3[nH]nc(C)c3c2)nnn1Cc1ccccc1    251 nM (active)

Next molecule, please.
Which measured Ki value corresponds to `FC(F)(F)c1ccccc1CNc1nccc(-c2c[nH]c3ncccc23)n1` ?
501 nM (active)

* * *

Target: Corticotropin-releasing factor receptor 2/Corticotropin-releasing factor-binding protein (Homo sapiens, UniProt P24387+Q13324)
Sequence (Q13324 whole entry): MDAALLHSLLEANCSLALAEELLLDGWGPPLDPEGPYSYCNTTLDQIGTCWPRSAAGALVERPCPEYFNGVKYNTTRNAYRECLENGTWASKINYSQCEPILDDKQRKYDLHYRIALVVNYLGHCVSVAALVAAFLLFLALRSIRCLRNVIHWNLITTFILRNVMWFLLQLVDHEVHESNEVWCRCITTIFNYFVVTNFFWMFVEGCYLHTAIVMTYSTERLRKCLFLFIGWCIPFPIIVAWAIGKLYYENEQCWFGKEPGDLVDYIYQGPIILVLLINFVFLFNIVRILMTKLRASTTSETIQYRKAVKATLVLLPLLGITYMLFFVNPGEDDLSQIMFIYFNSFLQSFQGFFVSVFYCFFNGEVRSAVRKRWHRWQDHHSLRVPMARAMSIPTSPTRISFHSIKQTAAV
Sequence (P24387 whole entry): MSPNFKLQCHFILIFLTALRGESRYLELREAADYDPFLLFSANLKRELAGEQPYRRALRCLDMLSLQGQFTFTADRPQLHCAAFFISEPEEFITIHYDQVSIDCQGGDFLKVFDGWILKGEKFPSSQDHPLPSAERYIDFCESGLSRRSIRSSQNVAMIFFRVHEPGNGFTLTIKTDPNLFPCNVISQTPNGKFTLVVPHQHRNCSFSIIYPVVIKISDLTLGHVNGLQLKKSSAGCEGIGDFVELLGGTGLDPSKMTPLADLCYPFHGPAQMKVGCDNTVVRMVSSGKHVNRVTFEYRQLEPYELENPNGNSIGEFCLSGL
Assay: activators of CRF receptor 2 with binding protein – uHTS hits, confirmation (AID 602473)
Assay type: functional
Conditions: read-out: EC50_Mean
Active and inactive are the calls of the source.
Outcome field: choose from class 1 (active), class 0 (inactive)

> print(dat)
                                   compound    label
1  CC1=C(C(=O)OCc2ccccc2)C(/C=C/c2ccccc2)N2C(=O)CCSC2=N1 (centres undefined)  class 0

Consider now this further compound.
Which outcome was assigned to `CCC(CC)C1=NN2C(=N)/C(=C\c3cc(C)n(-c4cccc(C)c4)c3C)C(=O)N=C2S1` in this test?
class 1

* * *

Target: Eukaryotic translation initiation factor 4E (Mus musculus, UniProt P63073)
Sequence (P63073 whole entry): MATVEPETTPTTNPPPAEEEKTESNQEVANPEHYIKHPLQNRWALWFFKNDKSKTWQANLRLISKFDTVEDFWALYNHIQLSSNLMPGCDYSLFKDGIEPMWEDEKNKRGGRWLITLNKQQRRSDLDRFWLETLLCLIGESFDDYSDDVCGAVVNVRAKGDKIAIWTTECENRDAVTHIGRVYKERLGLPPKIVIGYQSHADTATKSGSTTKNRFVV
Assay: blockers of eIF4G binding by eIF4E – biochemical, TR-FRET, dose response (AID 855);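 also: potency for disrupting eIF4E binding to eIF4GI seen as loss of FRET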
Format: functional
Calls of active or inactive are those of the source.
Your reply should match one of these outcome classes. active, inactive

Can you look up the reported call for `COc1cc(/N=c2\ssnc2Cl)cc(OC)c1OC` for me?
active

// param item: `Fc1ccc(/N=c2\ssnc2Cl)c(F)c1` ; yields the recorded call
inactive

Could you please tell me the result logged for `CN(C)S(=O)(=O)[n+]1ccn(C)c1.c1ccc([B-](c2ccccc2)(c2ccccc2)c2ccccc2)cc1` in this assay?
active

What did this assay record as the result for `CN1c2ccccc2N(C)C1(C)c1ccccc1` ?
inactive

Status in this test for `Cc1c(C(=O)N2CCCCC2)nn(-c2ccc(Cl)cc2)c(=O)c1C#N` ?
inactive
